What pIC50 was measured for each of the following?
tested on: YAP/TAZ-TEAD transcription; assay: Reporter gene assay for measuring the inhibition of YAP/TAZ-TEAD transcription (TEAD-responsive element luciferase reporter in Hek293T cells); type: cell-based; details: Homo sapiens, HEK-293T, 24 h, Hek293T cells transiently transfected with TEAD-responsive element luciferase reporter; 24 hours incubation
pIC50: −log10 of the molar value.

Exam item: Query for YAP/TAZ-TEAD transcription: what pIC50 does the record show for C=CC(=O)NC1Cc2ccccc2N(C(=O)c2ccccc2)C1 (stereo not shown) ?
Marked response: < 4.70

Exam item: Okay, and C=CC(=O)NC1Cc2nc(OC)ccc2N(c2ccc(C(F)(F)F)cc2)C1 (stereo not shown) ?
Marked response: > 6.00

Exam item: Let us now turn to C=CC(=O)NC1Cc2ccccc2N(c2ccc(F)cc2)C1 (stereo not shown)
Marked response: > 6.00

Exam item: Lookup C=CC(=O)NCC1Cc2ccccc2N(c2ccc(OC)cc2)C1 (stereo not shown)
Marked response: > 6.00

----------
system: YAP/TAZ-TEAD transcription; test: Reporter gene assay for measuring the inhibition of YAP/TAZ-TEAD transcription (TEAD-responsive element luciferase reporter in Hek293T cells); format: cell-based; details: Homo sapiens, HEK-293T, 24 h, Hek293T cells transiently transfected with TEAD-responsive element luciferase reporter; 24 hours incubation
Endpoint Label: IC50

Exam item: Notebook entry, YAP/TAZ-TEAD transcription assay: IC50 of C=CC(=O)NCC1Cc2ccccc2N(c2cnc(C(F)(F)F)nc2)C1 (centres unmarked) = ?
Marked response: < 1000 nM

Exam item: Please answer likewise for C=CC(=O)NCC1Cc2ccccc2N(c2cccc(F)c2F)C1 (centres unmarked)
Marked response: < 1000 nM

Exam item: Again, but for C=CC(=O)NC1Cc2c(Nc3ccccc3)cccc2N(c2ccc(C(F)(F)F)cc2)C1 (centres unmarked)
Marked response: < 1000 nM

Exam item: Next compound up: O=S1(=O)CCN1CC1Cc2ccccc2N(c2ccc(C(F)(F)F)cc2)C1 (centres unmarked)
Marked response: < 1000 nM

Exam item: Could you do the same for C=CC(=O)NC1Cc2c(N)cccc2N(c2ccc(C(F)(F)F)cc2)C1 (centres unmarked) , please?
Marked response: < 1000 nM

Exam item: Same for N#CC1CN(C2Cc3ccccc3N(c3ccc(C(F)(F)F)cc3)C2)C1=O (centres unmarked)
Marked response: 1000 to 20000 nM

Exam item: Param item: C=CC(=O)NCC1Cc2c(C(=O)NS(=O)(=O)C3CC3)cccc2N(c2ccc(C(F)(F)F)cc2)C1 (centres unmarked)
Marked response: > 20000 nM

Exam item: Next up: C=CC(=O)NC1Cc2c(C)cccc2N(c2ccc(C(F)(F)F)cc2)C1 (centres unmarked)
Marked response: < 1000 nM

Exam item: Try this compound next: N#CCNCC1Cc2ccccc2N(c2ccc(C(F)(F)F)cc2)C1 (centres unmarked)
Marked response: < 1000 nM

Exam item: Quick one: C=CC(=O)NC1Cc2ccccc2N(c2ccc(C(=O)NC)cc2)C1 (centres unmarked)
Marked response: 1000 to 20000 nM

Exam item: Now this one: C=CC(=O)NCC1Cc2ccccc2N(C(=O)C2CCCCC2)C1 (centres unmarked)
Marked response: < 1000 nM

Taken from patent US20240025856A1.
